The reported measurements were obtained from a melting point compilation (Tetko et al.; mined from patent text by program, amines drawn as free bases though some values may be those of a salt).

endpoint: melting point

Here's what some known entries look like.
[
  {
    "molecular-string": "CCCN1C(=O)N2CCCN=C2c2c1ncn2C",
    "melting point": "107 to 109 °C"
  },
  {
    "molecular-string": "O=C(Nc1ccccc1F)c1c(O)ccn2c1nc1ccccc12",
    "melting point": "237 to 238 °C"
  }
]

Next molecule, please.
Query block: Name the recorded melting point for CCCc1c(OCCCCCC(=O)NCCCCCCc2cccnc2)ccc(C(C)=O)c1O .
Result block: 56 to 58 °C

* * *

Readings of melting point for the listed compounds

Here's what some known entries look like.
[
  {
    "compound": "Cc1nn(-c2cc3nc(S)sc3cc2Br)c(=O)n1C(F)F",
    "melting point": "254 to 256 °C"
  },
  {
    "compound": "CNC1CCN(c2c(F)cc3c(=O)c(C(=O)O)cn(C4COC4)c3c2F)C1 (configuration not stated)",
    "melting point": "252 to 255 °C"
  }
]

Query block: Name the recorded melting point for CCOC(=O)C1=C(COCCNCC(=O)OC)NC(C)=C(C(=O)OC)C1c1cccc(Cl)c1Cl (configuration not stated) .
Result block: 96 to 98 °C

Query block: Name the recorded melting point for CC(C)(C)c1cc(CCc2ccccc2NC(=O)NCC(C)(C)c2ccc(F)cc2)cc(C(C)(C)C)c1O .
Result block: 179 to 180 °C

Query block: Name the recorded melting point for O=C1NC(=O)C(Cc2ccc(OCC3CCN(C(=O)OCc4ccccc4)CC3)cc2)S1 (configuration not stated) .
Result block: 54 to 56 °C

Query block: Name the recorded melting point for CCc1c2c(nn1-c1ccccc1)c(=O)[nH]c1ccccc12 .
Result block: 331 to 334 °C

Query block: Name the recorded melting point for CC(C)n1cc(C(=O)O)c2ccc(Cl)cc21 .
Result block: 206 to 208 °C

* * *

endpoint: melting point

[
  {
    "compound": "CCCCCCCCCCCCc1ccccc1C(Sc1nnnn1CCCC(=O)O)C(=O)O (stereo not given)",
    "melting point": "86 to 88 °C"
  }
]

Next compound, please.
Query block: Name the recorded melting point for CCOC(=O)COc1cc(C(C)(C)C)c(SC2=C(O)CC(CCc3ccc(O)cc3)(CCc3ccc(O)cc3)OC2=O)cc1C .
Result block: 162 to 163 °C

* * *

endpoint: melting point

[
  {
    "compound": "CCCCOc1cccc(CCNC(=O)C(Br)=Cc2ccccc2)c1",
    "melting point": "38 to 39 °C"
  },
  {
    "compound": "CCOc1ccc(-c2nc(CCC(=O)OC)cs2)cc1OCC",
    "melting point": "58.1 to 58.3 °C"
  },
  {
    "compound": "Cn1ccc(CNC(=O)c2ccnc(N3CCN(Cc4ccc(F)cc4)C3=O)c2)n1",
    "melting point": "79 to 81 °C"
  },
  {
    "compound": "O=S(=O)(/C=C/c1ccc(Cl)cc1)CS(=O)(=O)/C=C/c1ccc(Cl)cc1",
    "melting point": "178 to 180 °C"
  },
  {
    "compound": "CCCCCCCCCCCCCCOCC(COCCCCCCCCCCCCCC)(CC(=O)N(C)C)CC(=O)N(C)C",
    "melting point": "52 to 54 °C"
  }
]

Query block: Name the recorded melting point for CCOc1nc(N)nc(C2CC2)n1 .
Result block: 103 to 106 °C

Query block: Name the recorded melting point for FC(F)(F)Oc1ccc(C2=CCC3(CC2)OCCO3)cc1 .
Result block: 53.9 to 55.5 °C

Query block: Name the recorded melting point for O=C1NC(=O)c2cc(Nc3ccc(OCc4ccccc4)cc3)c(Nc3ccc(OCc4ccccc4)cc3)cc21 .
Result block: 187 to 189 °C

Query block: Name the recorded melting point for O=C(O)c1cc(Cl)ccc1OCc1ccccc1 .
Result block: 113 to 115 °C

Query block: Name the recorded melting point for N=C(Nc1ccc2[nH]cc(C3CCN(C(=O)c4ccccc4)CC3)c2c1)c1cccs1 .
Result block: 180 to 183 °C
